// EGFR (human) IC50 records
parameter.measured: IC50 (µM)

Sample records with IC50:
# record.smiles, measured
data = [
    ("Cc1c(C=C2C(=O)Nc3ccc(Cl)cc32)[nH]c2c1C(=O)N(CCN1CCOCC1)CC2", 10.2),
    ("COCC(=O)Nc1cc2c(cc1F)C(=Cc1[nH]c3c(c1-c1ccc(F)cc1)C(=O)NCC3)C(=O)N2", 2.03),
]

A. CCN(CC)CCN1CCc2[nH]c(C=C3C(=O)Nc4cccc(-c5cccc(F)c5F)c43)c(C)c2C1=O
B. Cc1c(C=C2C(=O)Nc3cccc(CCO)c32)[nH]c2c1C(=O)N(CCN1CCOCC1)CC2
C. O=C(CO)Nc1cc2c(cc1F)C(=Cc1[nH]c3c(c1-c1ccc(F)cc1)C(=O)NCC3)C(=O)N2
D. CCN(CC)CCN1CCc2[nH]c(C=C3C(=O)Nc4ccc(Br)cc43)c(C)c2C1=O
Hey, quick one: sort these by IC50, low to high? Answer format: list of labels, ordered as asked.
A, D, C, B
(A: 0.38 µM, D: 1.26 µM, C: 3.06 µM, B: 16.5 µM)
